Hey, just so you know, these numbers are from patent US20050239751A1.

assay: Rat pharmacokinetic study, portal and jugular vein cannula, oral administration; format: in vivo; details: Sprague-Dawley, rat, whole blood, typical dose of 5 mg/kg, male rats, read-out: Rat PK Cmax, Prodrug
Measurement Name: Cmax (ng/mL)

{"columns": ["Substance Smiles", "Unit Symbol", "Result Number"],
 "data": [
  ["CC(C)(C)c1oc(=O)oc1CN(C(=O)C(Cl)Cl)c1ccnc(-c2cc(-c3c(Cl)cccc3Cl)no2)c1", "ng/mL", 510]
]}
